# Measurement target: human mu-opioid receptor (MOR) (Homo sapiens)
# Sequence (P35372 whole entry): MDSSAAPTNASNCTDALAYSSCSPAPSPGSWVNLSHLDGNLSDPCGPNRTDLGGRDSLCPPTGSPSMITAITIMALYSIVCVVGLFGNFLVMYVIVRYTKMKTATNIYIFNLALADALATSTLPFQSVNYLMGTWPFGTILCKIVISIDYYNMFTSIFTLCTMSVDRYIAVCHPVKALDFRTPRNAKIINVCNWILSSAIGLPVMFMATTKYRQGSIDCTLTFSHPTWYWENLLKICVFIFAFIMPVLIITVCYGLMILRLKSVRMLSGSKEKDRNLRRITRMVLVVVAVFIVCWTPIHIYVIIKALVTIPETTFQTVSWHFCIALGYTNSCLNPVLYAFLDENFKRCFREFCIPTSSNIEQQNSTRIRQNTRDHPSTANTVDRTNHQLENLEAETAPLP
# Assay comment: BRET assay measuring G protein activation, agonist activity at human MOR
pEC50: −log10 of the molar value.
Label rule, in plain words: pEC50 of 6 and up is y, under 6 is n.

Consider the worked cases shown below.
INSERT INTO measurements (molecule, class_assignment) VALUES
  ('CCOC(=O)CCCCNC1c2ccccc2N(C)S(=O)(=O)c2cc(Br)ccc21 (centres unmarked) [Compound 6d]', 'y'),
  ('CCOC(=O)CCCCNC1c2ccccc2N(C)S(=O)(=O)c2cc(I)ccc21 (centres unmarked) [Compound 6e]', 'y'),
  ('CCOC(=O)CCCCCNC1c2ccccc2N(C)S(=O)(=O)c2cc(I)ccc21 (centres unmarked) [Compound 6g]', 'y');

QUERY: Check this molecule for pEC50 at or above 6: CCOC(=O)CCCCCNC1c2ccccc2N(C)S(=O)(=O)c2cc(Cl)ccc21 (centres unmarked) [Compound 6j]
RESULT: y
